Target: human Nav 1.5 (Homo sapiens (Human), UniProt Q14524)
Sequence (Q14524 whole entry): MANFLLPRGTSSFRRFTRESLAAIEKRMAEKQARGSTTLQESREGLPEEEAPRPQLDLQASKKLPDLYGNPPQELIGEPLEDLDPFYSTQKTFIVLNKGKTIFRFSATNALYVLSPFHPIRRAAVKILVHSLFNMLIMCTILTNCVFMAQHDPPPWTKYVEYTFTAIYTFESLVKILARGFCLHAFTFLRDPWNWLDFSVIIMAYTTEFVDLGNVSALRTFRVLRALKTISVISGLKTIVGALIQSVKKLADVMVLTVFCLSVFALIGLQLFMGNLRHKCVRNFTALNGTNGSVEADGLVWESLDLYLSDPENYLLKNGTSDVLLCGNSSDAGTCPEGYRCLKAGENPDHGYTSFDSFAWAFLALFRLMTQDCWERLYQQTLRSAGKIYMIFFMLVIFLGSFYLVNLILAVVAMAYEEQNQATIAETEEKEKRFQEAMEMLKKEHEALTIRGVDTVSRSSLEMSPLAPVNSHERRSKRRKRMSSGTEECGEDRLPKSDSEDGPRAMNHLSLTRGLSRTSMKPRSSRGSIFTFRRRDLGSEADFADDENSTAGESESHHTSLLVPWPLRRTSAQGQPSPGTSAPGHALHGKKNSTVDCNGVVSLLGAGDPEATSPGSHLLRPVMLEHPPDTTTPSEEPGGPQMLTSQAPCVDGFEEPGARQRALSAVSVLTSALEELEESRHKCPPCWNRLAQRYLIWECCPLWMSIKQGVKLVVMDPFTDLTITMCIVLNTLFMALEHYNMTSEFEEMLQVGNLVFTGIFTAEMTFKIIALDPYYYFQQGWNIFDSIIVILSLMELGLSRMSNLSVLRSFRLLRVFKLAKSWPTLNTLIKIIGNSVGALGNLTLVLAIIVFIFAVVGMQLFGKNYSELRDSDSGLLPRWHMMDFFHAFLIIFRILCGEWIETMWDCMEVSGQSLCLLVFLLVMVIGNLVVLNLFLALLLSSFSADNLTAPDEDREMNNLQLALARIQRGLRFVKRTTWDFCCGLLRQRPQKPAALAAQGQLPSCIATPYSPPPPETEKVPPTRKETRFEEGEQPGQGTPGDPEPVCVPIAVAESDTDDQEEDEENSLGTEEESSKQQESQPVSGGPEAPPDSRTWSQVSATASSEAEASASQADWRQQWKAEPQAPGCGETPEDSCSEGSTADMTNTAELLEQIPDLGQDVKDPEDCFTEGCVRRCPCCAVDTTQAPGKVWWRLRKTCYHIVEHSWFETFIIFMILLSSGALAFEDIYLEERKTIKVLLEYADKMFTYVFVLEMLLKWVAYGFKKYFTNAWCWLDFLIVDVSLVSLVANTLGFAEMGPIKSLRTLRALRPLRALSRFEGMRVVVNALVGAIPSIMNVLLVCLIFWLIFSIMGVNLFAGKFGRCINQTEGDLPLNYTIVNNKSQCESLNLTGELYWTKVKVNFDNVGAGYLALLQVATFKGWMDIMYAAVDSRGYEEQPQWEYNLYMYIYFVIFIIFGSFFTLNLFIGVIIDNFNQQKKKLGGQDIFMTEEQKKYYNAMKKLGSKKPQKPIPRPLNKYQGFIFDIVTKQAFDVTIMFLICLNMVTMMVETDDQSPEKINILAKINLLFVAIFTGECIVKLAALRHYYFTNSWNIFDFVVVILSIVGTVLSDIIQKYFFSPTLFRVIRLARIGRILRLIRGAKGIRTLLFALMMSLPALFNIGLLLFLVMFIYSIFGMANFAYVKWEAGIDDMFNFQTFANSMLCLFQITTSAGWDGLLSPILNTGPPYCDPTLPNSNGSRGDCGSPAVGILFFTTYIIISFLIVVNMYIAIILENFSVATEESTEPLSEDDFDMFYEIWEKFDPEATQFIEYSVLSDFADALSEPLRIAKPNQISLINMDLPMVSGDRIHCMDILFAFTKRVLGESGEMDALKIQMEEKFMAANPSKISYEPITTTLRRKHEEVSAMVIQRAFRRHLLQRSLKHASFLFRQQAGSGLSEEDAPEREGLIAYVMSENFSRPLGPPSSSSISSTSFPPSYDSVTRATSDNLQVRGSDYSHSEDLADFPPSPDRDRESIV
Experiment: Nav 1.5 IonWorks Quattro (IWQ) in vitro assay
Type: cell-based
Assay endpoint: IC50 (µM)

Cc1ccc(Oc2ncc(-c3cc(F)c(C(=O)NS(C)(=O)=O)cc3C)cc2Cl)cc1F [Example 623] : 4.84

* * *

Biological target: human Nav1.7 (Homo sapiens (Human), UniProt Q15858)
Sequence (Q15858 whole entry): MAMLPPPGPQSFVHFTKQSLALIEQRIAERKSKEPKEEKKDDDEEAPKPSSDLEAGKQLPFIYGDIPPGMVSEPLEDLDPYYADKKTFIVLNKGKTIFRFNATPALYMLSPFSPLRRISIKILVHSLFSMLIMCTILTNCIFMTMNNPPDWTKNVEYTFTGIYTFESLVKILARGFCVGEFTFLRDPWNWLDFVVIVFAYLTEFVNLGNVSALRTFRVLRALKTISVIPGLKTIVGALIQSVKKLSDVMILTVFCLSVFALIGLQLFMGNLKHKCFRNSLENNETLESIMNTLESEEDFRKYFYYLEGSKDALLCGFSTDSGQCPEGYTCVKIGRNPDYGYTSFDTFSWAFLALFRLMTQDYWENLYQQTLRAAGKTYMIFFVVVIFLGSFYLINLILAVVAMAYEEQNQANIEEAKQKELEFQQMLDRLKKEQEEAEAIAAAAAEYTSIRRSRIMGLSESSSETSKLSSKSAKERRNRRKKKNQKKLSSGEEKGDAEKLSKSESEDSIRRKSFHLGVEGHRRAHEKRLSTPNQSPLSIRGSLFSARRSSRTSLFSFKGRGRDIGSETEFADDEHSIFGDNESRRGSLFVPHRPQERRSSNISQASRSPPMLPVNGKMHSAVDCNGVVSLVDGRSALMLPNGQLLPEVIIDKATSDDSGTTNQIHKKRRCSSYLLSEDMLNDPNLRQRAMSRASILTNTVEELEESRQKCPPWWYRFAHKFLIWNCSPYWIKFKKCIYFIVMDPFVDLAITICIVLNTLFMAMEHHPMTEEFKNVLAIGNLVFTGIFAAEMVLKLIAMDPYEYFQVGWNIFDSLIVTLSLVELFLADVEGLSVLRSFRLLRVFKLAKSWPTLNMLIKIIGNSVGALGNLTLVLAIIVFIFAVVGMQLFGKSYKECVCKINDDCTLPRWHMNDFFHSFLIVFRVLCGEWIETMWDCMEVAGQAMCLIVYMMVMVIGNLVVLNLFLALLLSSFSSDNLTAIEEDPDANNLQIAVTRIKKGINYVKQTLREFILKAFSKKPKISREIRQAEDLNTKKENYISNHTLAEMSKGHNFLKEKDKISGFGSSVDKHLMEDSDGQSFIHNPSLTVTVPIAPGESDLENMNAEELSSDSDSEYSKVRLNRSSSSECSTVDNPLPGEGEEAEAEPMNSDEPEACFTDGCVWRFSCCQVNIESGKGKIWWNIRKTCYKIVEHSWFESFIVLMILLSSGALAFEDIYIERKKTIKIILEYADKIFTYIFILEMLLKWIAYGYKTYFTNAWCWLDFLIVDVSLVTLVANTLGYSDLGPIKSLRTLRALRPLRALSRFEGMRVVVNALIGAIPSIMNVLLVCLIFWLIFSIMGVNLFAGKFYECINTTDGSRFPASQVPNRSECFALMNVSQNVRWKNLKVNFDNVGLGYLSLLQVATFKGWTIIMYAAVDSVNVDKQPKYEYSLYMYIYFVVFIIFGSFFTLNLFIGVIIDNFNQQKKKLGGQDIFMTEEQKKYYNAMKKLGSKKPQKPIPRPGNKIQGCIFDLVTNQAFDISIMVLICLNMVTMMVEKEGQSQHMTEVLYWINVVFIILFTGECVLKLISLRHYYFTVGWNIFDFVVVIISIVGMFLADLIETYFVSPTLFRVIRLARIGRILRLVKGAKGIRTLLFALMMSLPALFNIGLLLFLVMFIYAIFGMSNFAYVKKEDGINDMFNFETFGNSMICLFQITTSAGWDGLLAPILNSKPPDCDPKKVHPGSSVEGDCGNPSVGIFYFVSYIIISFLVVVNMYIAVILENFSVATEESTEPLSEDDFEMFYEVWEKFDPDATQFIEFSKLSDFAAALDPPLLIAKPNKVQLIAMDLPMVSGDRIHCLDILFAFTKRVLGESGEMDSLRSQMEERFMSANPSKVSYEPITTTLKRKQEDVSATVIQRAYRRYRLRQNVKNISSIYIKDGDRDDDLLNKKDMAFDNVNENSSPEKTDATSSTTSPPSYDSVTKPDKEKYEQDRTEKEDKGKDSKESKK
Experiment: Nav 1.7 in vitro PatchXpress (PX) assay
Assay type: cell-based
pIC50: −log10 of the molar value.
Assay endpoint: pIC50

Cc1cc(C(=O)NS(C)(=O)=O)c(F)cc1-c1cnc(Oc2ccc(Cl)c(Cl)c2)c(Cl)c1 : 7.09
CCc1cc(Oc2ncc(-c3ccc(C(=O)NS(C)(=O)=O)cc3OC)cc2Cl)ccc1Cl : 7.14
COc1cc(C(=O)NS(C)(=O)=O)ccc1-c1cnc(Oc2cc(C)c(Cl)c(C)c2)c(Cl)c1 : 7.19
Cc1cc(C(=O)NS(C)(=O)=O)c(F)cc1-c1cnc(O[C@H]2C[C@H]3CC[C@@H]2C3)c(Cl)c1 : 7.09
Cc1cc(C(=O)NS(C)(=O)=O)c(F)cc1-c1cnc(Oc2cc(Cl)c(Cl)cc2Cl)c(Cl)c1 : 7.30
Cc1cc(Cl)ccc1COc1ncc(-c2cc(F)c(C(=O)NS(C)(=O)=O)cc2C)cc1Cl : 7.01
Cc1cc(C(=O)NS(C)(=O)=O)c(F)cc1-c1cnc(Oc2cc(Cl)ccc2F)c(Cl)c1 : 7.03
